Documented Kd across a set of binders
Molecular target: T1, clathrin N-terminal domain (CLTC NTD) (human)
T1 chain: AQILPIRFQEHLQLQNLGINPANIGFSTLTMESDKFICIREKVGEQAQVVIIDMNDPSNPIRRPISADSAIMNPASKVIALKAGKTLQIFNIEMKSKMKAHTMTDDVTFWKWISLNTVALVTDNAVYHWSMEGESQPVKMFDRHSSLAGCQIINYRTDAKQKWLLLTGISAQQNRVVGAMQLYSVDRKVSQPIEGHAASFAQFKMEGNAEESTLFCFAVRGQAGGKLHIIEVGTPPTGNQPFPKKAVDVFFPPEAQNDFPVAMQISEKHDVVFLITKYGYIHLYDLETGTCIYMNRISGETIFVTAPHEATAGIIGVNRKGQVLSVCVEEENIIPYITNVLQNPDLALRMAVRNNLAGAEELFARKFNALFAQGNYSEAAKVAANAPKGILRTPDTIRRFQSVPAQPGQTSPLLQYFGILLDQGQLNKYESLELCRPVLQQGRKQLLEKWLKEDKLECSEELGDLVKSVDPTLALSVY
Experiment: fluorescence polarisation; displacement: unlabelled peptide titrated onto a complex of FITC-labelled peptide (10 nM) and protein domain (1-2x KD); 50 mM sodium phosphate buffer pH 7.4 (CASK: plus 100 mM NaCl); KD calculated from IC50; technical triplets
Conditions: both partners purified

| BINDER | Kd |
| --- | --- |
| DLLTCGQAQMNFPY (BCL11A residues 44-56; source: synthetic peptide, bought: Genecust) [BCL11A_(44-56) wild-type peptide] | 1100 µM |
| SGNLIDLCGNQGLPY (also called MITF Y265C mutant; source: synthetic peptide, bought: Genecust) [MITF 258-271 Y265C peptide] | 206 µM |
| SGNLIDLYGNQGLPY (also called MITF Y265C wild-type; source: synthetic peptide, bought: Genecust) [MITF 258-271 wild-type peptide] | 191 µM |
| DLLTFGQAQMNFPY (BCL11A residues 44-56; also called C47F BCL11A; source: synthetic peptide, bought: Genecust) [BCL11A_(44-56) C48F peptide] | 361 µM |

Provenance of the data: paper PMC11369174
